Below, each entry is listed with its recorded pKd.
# STUDY_SYSTEM: T1, human PD-1 dimer (human PD-1-mFc or human PD-1-hFc) (human, UniProt Q15116 25-170)
# T1 construct: also called hPD-1-mFc; hPD1-hFc
# T1 sequence (Q15116 25-170 C93S): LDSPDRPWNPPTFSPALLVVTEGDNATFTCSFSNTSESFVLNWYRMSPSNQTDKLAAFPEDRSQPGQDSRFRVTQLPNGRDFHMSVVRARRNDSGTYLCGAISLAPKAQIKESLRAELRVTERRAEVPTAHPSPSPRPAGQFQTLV
# PROTOCOL_DETAILS: SPR, mAb captured, 37C;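 also: Real-time Biacore biosensor, PD-1 dimer flowed over anti-PD-1 antibody surface, rate constants fitted to a 1:1 model, KD derived as kd/ka and t½ as ln2/(60·kd)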
pKd: −log10 of the molar value.
VALUE_TYPE: pKd

>>> recorded_result("H2aM7791N (antibody, mouse IgG2a, V domains shown, Human variable regions, mouse IgG2a Fc; also called H2M7791N) VH: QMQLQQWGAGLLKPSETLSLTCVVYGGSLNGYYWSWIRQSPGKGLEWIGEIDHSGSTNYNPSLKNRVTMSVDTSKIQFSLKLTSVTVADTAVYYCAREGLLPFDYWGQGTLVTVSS VL: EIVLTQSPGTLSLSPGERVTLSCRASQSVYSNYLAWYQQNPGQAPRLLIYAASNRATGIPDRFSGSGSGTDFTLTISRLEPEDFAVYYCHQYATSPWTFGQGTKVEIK")
8.44
>>> recorded_result("H1M7799N (antibody, mouse IgG1, V domains shown, Human variable regions, mouse IgG1 Fc) VH: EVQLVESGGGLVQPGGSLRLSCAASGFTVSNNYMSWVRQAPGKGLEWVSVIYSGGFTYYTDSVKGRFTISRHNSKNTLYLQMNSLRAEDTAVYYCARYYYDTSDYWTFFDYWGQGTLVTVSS VL: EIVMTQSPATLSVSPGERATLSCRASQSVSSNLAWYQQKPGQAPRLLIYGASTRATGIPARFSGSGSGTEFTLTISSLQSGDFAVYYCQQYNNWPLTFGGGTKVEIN")
9.39
>>> recorded_result("H4H7798N (antibody, human IgG4 S228P, kappa, V domains shown) VH: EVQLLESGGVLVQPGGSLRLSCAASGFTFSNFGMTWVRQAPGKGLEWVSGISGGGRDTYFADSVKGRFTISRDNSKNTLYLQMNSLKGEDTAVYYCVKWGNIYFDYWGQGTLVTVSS VL: DIQMTQSPSSLSASVGDSITITCRASLSINTFLNWYQQKPGKAPNLLIYAASSLHGGVPSRFSGSGSGTDFTLTIRTLQPEDFATYYCQQSSNTPFTFGPGTVVDFRR")
9.76
>>> recorded_result("H2aM7796N (antibody, mouse IgG2a, V domains shown, Human variable regions, mouse IgG2a Fc; also called H2M7796N) VH: QVQLVESGGGVVQPGRSLRLSCAASGFTFSSYGMHWVRQAPGKGLEWVAIIWSDGDSEYNLDSVKGRFTISRDNSKNTLYLQMNSLRVEDSAVYYCARDRDLEDIWGQGTMVTVSS VL: DIQMTQSPSSLSASVGDRVTITCRASQGIRNDLGWYQQKPGKAPKRLIYAASNLQSGVPSRFSGSGSGTEFTLTISSLQPEDFATYYCLQHNSYPLTFGGGTKVEIK")
7.71
>>> recorded_result("H2aM7780N (antibody, mouse IgG2a, V domains shown, Human variable regions, mouse IgG2a Fc (H2aM prefix); also called H2M7780N) VH: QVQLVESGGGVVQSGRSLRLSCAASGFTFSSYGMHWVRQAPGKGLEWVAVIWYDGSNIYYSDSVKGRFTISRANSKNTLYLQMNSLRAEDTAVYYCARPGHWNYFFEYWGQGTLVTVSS VL: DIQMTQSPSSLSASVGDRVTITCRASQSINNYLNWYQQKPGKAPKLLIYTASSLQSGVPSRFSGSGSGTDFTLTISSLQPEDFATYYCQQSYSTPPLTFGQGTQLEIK")
9.64
>>> recorded_result("H2aM7795N (antibody, mouse IgG2a, V domains shown, Human variable regions, mouse IgG2a Fc; also called H2M7795N) VH: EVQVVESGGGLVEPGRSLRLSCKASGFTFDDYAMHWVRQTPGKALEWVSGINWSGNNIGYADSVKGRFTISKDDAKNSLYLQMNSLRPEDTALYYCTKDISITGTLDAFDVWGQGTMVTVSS VL: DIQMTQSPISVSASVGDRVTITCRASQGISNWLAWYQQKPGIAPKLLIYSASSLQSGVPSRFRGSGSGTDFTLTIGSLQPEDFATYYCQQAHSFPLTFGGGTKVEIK")
9.43
>>> recorded_result("H2aM7798N (antibody, mouse IgG2a, V domains shown, Human variable regions, mouse IgG2a Fc; also called H2M7798N) VH: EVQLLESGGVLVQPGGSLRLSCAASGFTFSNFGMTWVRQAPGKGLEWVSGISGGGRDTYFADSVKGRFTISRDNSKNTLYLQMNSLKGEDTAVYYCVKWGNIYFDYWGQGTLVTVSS VL: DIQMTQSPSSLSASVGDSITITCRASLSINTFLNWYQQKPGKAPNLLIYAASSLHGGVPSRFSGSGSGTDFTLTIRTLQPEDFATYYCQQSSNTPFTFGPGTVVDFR")
10.55
